# Test system: HEK-293T
# protocol details: Incucyte cell viability with HEK293T; also: filed as whole numbers so only -1 and 0 and 1 occur
# Assay type: toxicity, cell-based
# experimental context: human, 0 h, 10 µM, compound concentration 10 uM, replicate number 1, timepoint 0 hours
Item-by-item account of Growth Rate

compound: COc1ccc(-c2ccc3cc(C(=O)O)ccc3c2)cc1C12CC3CC(CC(C3)C1)C2
Growth Rate: 0

compound: Cc1nc(N2CC[C@H](O)C2)ncc1-c1cc(C(F)(F)F)cc2[nH]ncc12
Growth Rate: 1

compound: CNC(=O)c1ccc(Nc2ncc(C(F)(F)F)c(NCc3nccnc3N(C)S(C)(=O)=O)n2)cc1 [DEFACTINIB]
Growth Rate: 1

compound: CC#CC(=O)N1CCC[C@H]1c1nc(-c2ccc(C(=O)Nc3ccccn3)cc2)c2c(N)nccn12 [ACALABRUTINIB]
Growth Rate: 1

compound: CC1CCN(CC[C@H]2CCCN2S(=O)(=O)c2cccc(O)c2)CC1.Cl
Growth Rate: 0

compound: CSc1cccnc1N1CCN(Cc2nc3ccccc3[nH]2)CC1 [A-769]
Growth Rate: 1

compound: COC(=O)C(Cc1ccc(OCCn2c(=O)sc3cc(C(=O)c4ccccc4)ccc32)cc1)C(=O)OC
Growth Rate: 1

compound: C[C@]1(C(=O)N(CCCC(=O)O)Cc2cccc(Cl)c2)CCN1C(=O)c1csc2ccccc12 [GLPG-0974]
Growth Rate: 1

compound: COc1ccccc1CN[C@H]1C2CCN(CC2)[C@H]1C(c1ccccc1)c1ccccc1 [CP-96345]
Growth Rate: 1

compound: C[C@H](N)COC(=O)[C@@H](CCCCN)NC(=O)Cc1c(-c2ccc3ccccc3c2)[nH]c2c1ccc1ccccc12
Growth Rate: 0

compound: COc1cc2ncnc(Nc3ccc(F)c(Cl)c3)c2cc1OCCCN1CCOCC1 [GEFITINIB]
Growth Rate: 0

compound: COc1ccc(S(=O)(=O)N2c3ccc(Cl)cc3[C@](O)(c3ccccc3Cl)[C@@H]2C(=O)N2CCC[C@H]2C(N)=O)cc1OC [RELCOVAPTAN]
Growth Rate: 1

compound: COC(=O)/C=C/c1cccc(N(Cc2ccc(-c3ccc(N(C)C)cc3)cc2)C(=O)C2CCCCC2)c1 [FEXARAMINE]
Growth Rate: 0

compound: Cc1cc(-n2nc(Cc3cc(F)cc(C(F)(F)F)c3)nc2C)ccc1C(N)=O [TP-024]
Growth Rate: 1

compound: C[C@H](c1ccc(F)cc1)N(Cc1cccc(C(=O)O)c1)C(=O)c1cnc2ccccc2c1 [PF-05105679]
Growth Rate: 1

compound: Cc1ccccc1C(=O)Nc1ccc(C(=O)N2CCCC(O)c3cc(Cl)ccc32)c(C)c1 (stereo not drawn) [TOLVAPTAN]
Growth Rate: 1

compound: COc1cc(C(=O)NS(=O)(=O)c2ccccc2C)ccc1Cc1cn(C)c2ccc(NC(=O)OC3CCCC3)cc12 [ZAFIRLUKAST]
Growth Rate: 0

compound: COc1ccc(S(=O)(=O)c2cc(OC)ccc2S(=O)(=O)c2ccc([C@H](C)NS(C)(=O)=O)cc2)cc1
Growth Rate: 1

compound: O=C(NCc1ncc(C(F)(F)F)cc1Cl)c1ccc2c(c1)C1(CCS(=O)(=O)CC1)[C@@H](C1CC1)N2S(=O)(=O)c1ccc(F)cc1 [BAY-786]
Growth Rate: 0

compound: CN1C[C@H](Nc2cnn(C)c(=O)c2Br)C[C@H](c2ccccc2)C1
Growth Rate: 1

compound: Cc1csc(NC(=O)c2cc(F)cc(Oc3cncnc3)c2)n1
Growth Rate: 0

compound: Cl.O=C(O)c1cc(-c2ccc(C3CCNCC3)cc2)c2ccc(-c3ccc(C(F)(F)F)cc3)cc2c1
Growth Rate: 0

compound: Cc1cc(C)c(-n2ccn3nc(-c4cccnc4)cc23)cc1NC(=O)c1cc(C#N)cc(S(F)(F)(F)(F)F)c1 [BAY-826]
Growth Rate: 0

compound: CCOC(=O)c1cc2cc(-c3cc(C(=O)NCc4ccc(C(=O)O)cc4)nn3C)ccc2[nH]1 [BI 4394]
Growth Rate: 0

compound: O=C(Nc1ccc(Oc2ccc(F)cc2)cc1)N1CCc2ncccc2[C@H]1c1ccc(F)cc1 [BAY-897]
Growth Rate: 0

compound: Cc1cccc(CN2CCN(C(c3ccccc3)c3ccc(Cl)cc3)CC2)c1.Cl.Cl (stereo not drawn)
Growth Rate: 1

compound: CC(C)Oc1ccccc1C(=O)Nc1ccccc1C(=O)Nc1cccc(S(=O)(=O)C(F)(F)F)c1
Growth Rate: 0

compound: CN1CCN(Cc2ccc(Nc3ncc(Cl)c(Nc4ccccc4S(=O)(=O)N(C)C)n3)cc2)CC1 [DUBERMATINIB]
Growth Rate: 0

compound: CC(C)(C)NC[C@H](O)COc1nsnc1N1CCOCC1 [TIMOLOL]
Growth Rate: 0

compound: O=C(N[C@@H](C1CC1)C(F)(F)F)c1cc(-c2cnn3cc(-c4ccc(F)cc4)cnc23)cs1
Growth Rate: 0

compound: CN(C)C(=O)Cn1cc(-c2nc([C@@](C)(c3ccc(-c4cnc(N)nc4)cc3)C3CC3)no2)cn1 [BI 665915]
Growth Rate: 0

compound: O=C1CCc2cc(Nc3cc(OC4CCOCC4)c([N+](=O)[O-])cc3Cl)ccc2N1
Growth Rate: 0

compound: CO[C@@H](C)c1c(Nc2ccc([C@H](N(C)C(=O)C3CCS(=O)(=O)CC3)C(F)(F)F)cc2)cnc2cc(Cl)nn12 [NVS-MALT1]
Growth Rate: 0

* * *

# Test system: U2OS
# protocol details: Incucyte cell viability with U2OS; also: filed as whole numbers so only -1 and 0 and 1 occur
# Format: toxicity, cell-based
# experimental context: human, 18 h, 10 µM, compound concentration 10 uM, replicate number 1, timepoint 18 hours

substance smiles: O=C(NCc1ncc(C(F)(F)F)cc1Cl)c1ccc2c(c1)C1(CCS(=O)(=O)CC1)[C@@H](C1CC1)N2S(=O)(=O)c1ccc(F)cc1
tested target: U2OS
Growth Rate: 1

substance smiles: COc1ccc(-c2ccc3cc(C(=O)O)ccc3c2)cc1C12CC3CC(CC(C3)C1)C2
tested target: U2OS
Growth Rate: 0

substance smiles: CC(C)(C)NC[C@H](O)COc1nsnc1N1CCOCC1
tested target: U2OS
Growth Rate: 1

substance smiles: COc1ccccc1CN[C@H]1C2CCN(CC2)[C@H]1C(c1ccccc1)c1ccccc1
tested target: U2OS
Growth Rate: 1

substance smiles: C=CC(=O)Nc1cccc(Sc2nc(Nc3ccc(N4CCN(C)CC4)cc3)ncc2Cl)c1
tested target: U2OS
Growth Rate: 0

substance smiles: Cc1nc(N2CC[C@H](O)C2)ncc1-c1cc(C(F)(F)F)cc2[nH]ncc12
tested target: U2OS
Growth Rate: 0

substance smiles: CCOC(=O)c1cc2cc(-c3cc(C(=O)NCc4ccc(C(=O)O)cc4)nn3C)ccc2[nH]1
tested target: U2OS
Growth Rate: 0

substance smiles: COC(=O)C1=C(C)NC(C)=C(C(=O)OCCCN2CCC(c3ccccc3)(c3ccccc3)CC2)[C@H]1c1cccc([N+](=O)[O-])c1
tested target: U2OS
Growth Rate: 0

* * *

# Tested on: U2OS
# protocol details: Multiplex assay against U2OS
# Type: toxicity, cell-based
# experimental context: human, 12 h, 1 µM, compound concentration 1 uM, replicate 1
readout type: Population Hoechst High Intensity Objects (%)

compound: Cc1ccc2c(c1)c1c(n2CCc2ccc(C)nc2)CCN(C)C1 [LATREPIRDINE]
experimental result: 7%
//
compound: O=c1[nH]c2ccccc2n1C1CCN(Cc2ccc(-c3[nH]c4cc5ncnc5cc4nc3-c3ccccc3)cc2)CC1
experimental result: 5%
//
compound: Cc1cccc(CN2CCN(C(c3ccccc3)c3ccc(Cl)cc3)CC2)c1.Cl.Cl (centres undefined)
experimental result: 6%
//
compound: CNC(=O)Nc1ccc(-c2nc(N3CC4CCC(C3)O4)c3cnn(C4CCC5(CC4)OCCO5)c3n2)cc1
experimental result: 13%
//
compound: CC1=C(C(=O)Nc2cc3cn[nH]c3cc2F)C(c2ccc(C(F)(F)F)cc2)CC(=O)N1 (centres undefined)
experimental result: 4%
//
compound: Cc1c[nH]c2nccc(Oc3c(F)cc(Nc4cc(Cl)nc(N)n4)cc3F)c12
experimental result: 6%
//
compound: CC(C)CC(=O)Nc1[nH]nc2c1CN(C(=O)C1CCN(C)CC1)C2(C)C
experimental result: 1%
//
compound: CN1CCN(Cc2cc(NC(=O)c3ccc4c(c3)CN(c3ccccc3)CC4)cc(C(F)(F)F)c2)CC1
experimental result: 2%
//
compound: COc1cc(Nc2nccc(-c3cnn4nc(OC)ccc34)n2)cc(C(F)(F)F)c1
experimental result: 7%

* * *

# System: Fibroblast
# protocol details: Multiplex assay against human fibroblast
# Format: toxicity, cell-based
# experimental context: 48 h, 1 µM, compound concentration 1 uM, replicate 2
Item-by-item account of Population Pyknosed Nuclei (%)
readout type: Population Pyknosed Nuclei (%)

compound: CCc1ccc(OCc2ccccc2C(=O)Nc2ccc3nc(C)cc(N)c3c2)cc1.Cl
readout type: Population Pyknosed Nuclei (%)
experimental result: 23
--
compound: Cc1cccc(CN2CCN(C(c3ccccc3)c3ccc(Cl)cc3)CC2)c1.Cl.Cl (centres undefined)
readout type: Population Pyknosed Nuclei (%)
experimental result: 7
--
compound: O=C(c1cc2c(cc1F)OC(c1ccc(F)cc1)(c1ccc(Cl)cc1Cl)O2)N1CCOCC1 (centres undefined)
readout type: Population Pyknosed Nuclei (%)
experimental result: 7
--
compound: Cc1ccc2c(c1)c1c(n2CCc2ccc(C)nc2)CCN(C)C1 [LATREPIRDINE]
readout type: Population Pyknosed Nuclei (%)
experimental result: 3
--
compound: COc1ccccc1CN[C@H]1C2CCN(CC2)[C@H]1C(c1ccccc1)c1ccccc1 [CP-96345]
readout type: Population Pyknosed Nuclei (%)
experimental result: 2
--
compound: CC(C)c1noc(N2CCC(COc3ccc(-c4ccc(S(C)(=O)=O)cc4)nc3)CC2)n1 [GSK-1292263]
readout type: Population Pyknosed Nuclei (%)
experimental result: 0
--
compound: Cc1c[nH]c2nccc(Oc3c(F)cc(Nc4cc(Cl)nc(N)n4)cc3F)c12 [BAY-549]
readout type: Population Pyknosed Nuclei (%)
experimental result: 0
--
compound: CC(C)NC(=O)N1CC[C@H](NC2=Nc3cc(F)ccc3N(CC(F)F)c3ccc(Cl)cc32)C1
readout type: Population Pyknosed Nuclei (%)
experimental result: 3
--
compound: CC(C)Oc1ccccc1C(=O)Nc1ccccc1C(=O)Nc1cccc(S(=O)(=O)C(F)(F)F)c1
readout type: Population Pyknosed Nuclei (%)
experimental result: 3
